System: RERF-LC-KJ
Experiment description: relative viability (nuclei count vs DMSO), 5 days (fraction); higher = more cells survive
Recorded conditions: first compound 0.02 µM
Categories are assigned from the measured relative viability using these intervals: low class (below 0.7), middle class (0.7 to below 0.9), high class (0.9 or more)

# Molecule, Category label
rows = [
    ("CCNC(=O)c1noc(-c2cc(C(C)C)c(O)cc2O)c1-c1ccc(CN2CCOCC2)cc1 [Luminespib] + Nc1ncn([C@H]2C[C@H](O)[C@@H](CO)O2)c(=O)n1 [Decitabine] (partner 2 µM)", "low class"),
    ("CN1CCN(CCOc2cc(OC3CCOCC3)c3c(Nc4c(Cl)ccc5c4OCO5)ncnc3c2)CC1 [Saracatinib] + C[C@@H](Oc1cc(-c2cnn(C3CCNCC3)c2)cnc1N)c1c(Cl)ccc(F)c1Cl [Crizotinib] (partner 1 µM)", "middle class"),
    ("CN1CCN(CCOc2cc(OC3CCOCC3)c3c(Nc4c(Cl)ccc5c4OCO5)ncnc3c2)CC1 [Saracatinib] + CC1(C)CCC(c2ccc(Cl)cc2)=C(CN2CCN(c3ccc(C(=O)NS(=O)(=O)c4ccc(N[C@H](CCN5CCOCC5)CSc5ccccc5)c(S(=O)(=O)C(F)(F)F)c4)cc3)CC2)C1 [Navitoclax] (partner 0.5 µM)", "middle class"),
    ("CN1CCN(CCOc2cc(OC3CCOCC3)c3c(Nc4c(Cl)ccc5c4OCO5)ncnc3c2)CC1 [Saracatinib] + NC(=O)Nc1cc(-c2cccc(F)c2)sc1C(=O)N[C@H]1CCCNC1 [AZD7762] (partner 0.2 µM)", "high class"),
    ("CCNC(=O)c1noc(-c2cc(C(C)C)c(O)cc2O)c1-c1ccc(CN2CCOCC2)cc1 [Luminespib] + CC1(C)CCC(c2ccc(Cl)cc2)=C(CN2CCN(c3ccc(C(=O)NS(=O)(=O)c4ccc(N[C@H](CCN5CCOCC5)CSc5ccccc5)c(S(=O)(=O)C(F)(F)F)c4)cc3)CC2)C1 [Navitoclax] (partner 0.5 µM)", "high class"),
    ("CCNC(=O)c1noc(-c2cc(C(C)C)c(O)cc2O)c1-c1ccc(CN2CCOCC2)cc1 [Luminespib] + Cc1nc(NC(=O)N2CCC[C@H]2C(N)=O)sc1-c1ccnc(C(C)(C)C(F)(F)F)c1 [Alpelisib] (partner 2 µM)", "low class"),
]
